biological target: rNaV1.4 (Rattus norvegicus); assay: Two-electrode voltage-clamp on Xenopus laevis oocytes expressing NaV1.4; details: read-out: Maximum % inhibition NaV1.4, peptide at 100 μM
Where a SMILES comes first, the peptide text is derived from it. Bridges are numbered along the chain shown (N, C = ends).
value_type: inhibition at 100 µM (%)
// units = %; emit number, no label

Use these answered entries as a reference point.
molecule | system_name | inhibition at 100 µM / %
C[C@@H]1NC(=O)[C@H](Cc2c[nH]c3ccccc23)NC(=O)[C@H](CCCNC(=N)N)NC(=O)[C@H](CCCNC(=N)N)NC(=O)[C@@H](N)CSSC[C@@H](C(N)=O)NC(=O)[C@H](CCCCN)NC(=O)[C@H](CC(N)=O)NC(=O)[C@H](Cc2c[nH]c3ccccc23)NC(=O)[C@H](CCCNC(=N)N)NC1=O [PnCS1[R9K], CRRWARWNKC ^*] (H-CRRWARWNKC-NH2; disulfide 1-10) | rNaV1.4 (Rattus norvegicus) | 66
C[C@@H]1NC(=O)[C@H](CC(N)=O)NC(=O)[C@H](Cc2c[nH]c3ccccc23)NC(=O)[C@H](CCCNC(=N)N)NC(=O)[C@H](C)NC(=O)[C@H](Cc2c[nH]c3ccccc23)NC(=O)[C@H](CCCNC(=N)N)NC(=O)[C@H](CCCNC(=N)N)NC(=O)[C@@H](N)CSSC[C@@H](C(N)=O)NC1=O [PnCS1[R9A], CRRWARWNAC ^*] (H-CRRWARWNAC-NH2; disulfide 1-10) | rNaV1.4 (Rattus norvegicus) | 86

**Q:** Fill in the blank: the reported inhibition at 100 µM of C[C@@H]1NC(=O)[C@H](Cc2c[nH]c3ccccc23)NC(=O)[C@H](CCCNC(=N)N)NC(=O)[C@H](CCCNC(=N)N)NC(=O)[C@@H](N)CSSC[C@@H](C(N)=O)NC(=O)[C@H](CCCNC(=N)N)NC(=O)[C@H](CCC(=O)O)NC(=O)[C@H](Cc2c[nH]c3ccccc23)NC(=O)[C@H](CCCNC(=N)N)NC1=O [PnCS1[N8E], CRRWARWERC ^*] (H-CRRWARWERC-NH2; disulfide 1-10) is ____.
**A:** 53

* * *

Let's go through some recorded IC50 values for UniProtKB Q14524 together.
Where a SMILES comes first, the peptide text is derived from it. Bridges are numbered along the chain shown (N, C = ends).
Express your answer in µM, writing the number without its unit.

Solved cases (2 shown):
compound | unit_name | IC50
C[C@@H]1NC(=O)[C@H](Cc2c[nH]c3ccccc23)NC(=O)[C@H](CCCNC(=N)N)NC(=O)[C@H](CCCNC(=N)N)NC(=O)[C@@H](N)CSSC[C@@H](C(N)=O)NC(=O)[C@H](CCCNC(=N)N)NC(=O)[C@H](CC(N)=O)NC(=O)[C@H](CCCCN)NC(=O)[C@H](CCCNC(=N)N)NC1=O [PnCS1[W7K], CRRWARKNRC ^*] (H-CRRWARKNRC-NH2; disulfide 1-10) | µM | 3
N=C(N)NCCC[C@@H]1NC(=O)[C@H](CC(N)=O)NC(=O)[C@H](Cc2c[nH]c3ccccc23)NC(=O)[C@H](CCCNC(=N)N)NC(=O)[C@H](CCCCN)NC(=O)[C@H](Cc2c[nH]c3ccccc23)NC(=O)[C@H](CCCNC(=N)N)NC(=O)[C@H](CCCNC(=N)N)NC(=O)[C@@H](N)CSSC[C@@H](C(N)=O)NC1=O [PnCS1[A5K], CRRWKRWNRC ^*] (H-CRRWKRWNRC-NH2; disulfide 1-10) | µM | 2.1

We next turn to a different compound, shown below.
**Q:** So what IC50 did N=C(N)NCCC[C@@H]1NC(=O)[C@H](CC(N)=O)NC(=O)[C@H](Cc2c[nH]c3ccccc23)NC(=O)[C@H](CCCNC(=N)N)NC(=O)[C@H](CCC(=O)O)NC(=O)[C@H](Cc2c[nH]c3ccccc23)NC(=O)[C@H](CCCNC(=N)N)NC(=O)[C@H](CCCNC(=N)N)NC(=O)[C@@H](N)CSSC[C@@H](C(N)=O)NC1=O [PnCS1[A5E], CRRWERWNRC ^*] (H-CRRWERWNRC-NH2; disulfide 1-10) get with UniProtKB Q14524?
**A:** 8.8

* * *

target: rNaV1.4 (Rattus norvegicus, UniProt P15390); experiment: Two-electrode voltage-clamp on Xenopus laevis oocytes expressing NaV1.4; conditions: read-out: Maximum % inhibition NaV1.4, peptide at 100 μM
Sequence (P15390 whole entry): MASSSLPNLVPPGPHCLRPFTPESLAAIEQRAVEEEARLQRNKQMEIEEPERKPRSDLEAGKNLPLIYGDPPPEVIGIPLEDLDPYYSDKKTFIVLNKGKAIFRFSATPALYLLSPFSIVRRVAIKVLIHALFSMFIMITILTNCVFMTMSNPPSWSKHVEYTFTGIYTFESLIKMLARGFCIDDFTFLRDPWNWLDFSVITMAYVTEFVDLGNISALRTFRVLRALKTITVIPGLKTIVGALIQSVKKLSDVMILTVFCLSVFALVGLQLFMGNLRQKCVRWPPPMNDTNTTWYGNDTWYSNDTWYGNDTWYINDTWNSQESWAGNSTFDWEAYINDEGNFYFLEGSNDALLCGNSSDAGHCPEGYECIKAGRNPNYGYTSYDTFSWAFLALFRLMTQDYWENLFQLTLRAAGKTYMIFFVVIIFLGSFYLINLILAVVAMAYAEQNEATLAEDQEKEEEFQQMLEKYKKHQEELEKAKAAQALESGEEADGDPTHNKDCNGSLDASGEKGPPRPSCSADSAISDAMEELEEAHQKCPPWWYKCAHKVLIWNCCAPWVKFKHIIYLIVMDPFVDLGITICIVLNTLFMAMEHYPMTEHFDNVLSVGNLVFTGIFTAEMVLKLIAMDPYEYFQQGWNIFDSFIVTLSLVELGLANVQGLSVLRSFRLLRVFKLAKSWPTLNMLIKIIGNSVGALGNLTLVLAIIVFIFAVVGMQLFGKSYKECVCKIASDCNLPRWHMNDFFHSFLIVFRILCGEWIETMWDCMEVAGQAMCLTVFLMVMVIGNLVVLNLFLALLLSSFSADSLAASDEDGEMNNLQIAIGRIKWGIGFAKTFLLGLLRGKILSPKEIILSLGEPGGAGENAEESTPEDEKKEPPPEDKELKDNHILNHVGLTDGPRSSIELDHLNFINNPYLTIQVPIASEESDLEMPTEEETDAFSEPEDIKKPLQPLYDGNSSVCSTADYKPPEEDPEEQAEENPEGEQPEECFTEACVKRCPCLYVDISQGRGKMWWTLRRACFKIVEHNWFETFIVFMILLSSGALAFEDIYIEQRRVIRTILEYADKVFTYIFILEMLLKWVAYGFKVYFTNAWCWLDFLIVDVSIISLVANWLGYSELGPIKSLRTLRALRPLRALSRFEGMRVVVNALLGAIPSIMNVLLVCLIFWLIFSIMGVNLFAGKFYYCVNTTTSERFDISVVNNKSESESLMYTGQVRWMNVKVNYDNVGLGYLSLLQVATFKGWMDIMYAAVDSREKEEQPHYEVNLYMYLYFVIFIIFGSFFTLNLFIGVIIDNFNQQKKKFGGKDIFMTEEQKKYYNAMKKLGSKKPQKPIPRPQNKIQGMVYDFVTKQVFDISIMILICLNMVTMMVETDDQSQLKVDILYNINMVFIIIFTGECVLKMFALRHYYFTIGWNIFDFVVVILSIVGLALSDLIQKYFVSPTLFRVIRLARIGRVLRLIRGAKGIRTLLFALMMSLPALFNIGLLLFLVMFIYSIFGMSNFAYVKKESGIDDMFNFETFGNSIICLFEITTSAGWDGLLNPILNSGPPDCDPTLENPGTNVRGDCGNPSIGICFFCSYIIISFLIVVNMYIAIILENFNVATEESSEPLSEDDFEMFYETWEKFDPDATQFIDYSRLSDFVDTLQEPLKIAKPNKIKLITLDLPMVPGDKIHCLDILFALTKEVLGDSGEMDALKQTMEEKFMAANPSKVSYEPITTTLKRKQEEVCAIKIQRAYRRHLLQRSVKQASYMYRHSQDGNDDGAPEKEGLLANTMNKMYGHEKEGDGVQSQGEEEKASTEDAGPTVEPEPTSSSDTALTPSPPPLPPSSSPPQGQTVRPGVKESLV
Sequence (Q00954 19-218, further chain): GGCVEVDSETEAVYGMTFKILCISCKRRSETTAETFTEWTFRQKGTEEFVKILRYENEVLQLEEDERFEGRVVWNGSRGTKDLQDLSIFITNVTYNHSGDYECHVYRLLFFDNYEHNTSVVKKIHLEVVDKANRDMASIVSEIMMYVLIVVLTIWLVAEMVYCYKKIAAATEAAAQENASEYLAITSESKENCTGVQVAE
Where a SMILES comes first, the peptide text is derived from it. Bridges are numbered along the chain shown (N, C = ends).
value_type: inhibition at 100 µM (%)
A number alone suffices; assume %.

**Q:** Field request: inhibition at 100 µM | item: CC(=O)N[C@H]1CSSC[C@@H](C(N)=O)NC(=O)[C@H](CCCNC(=N)N)NC(=O)[C@H](CC(N)=O)NC(=O)[C@H](Cc2c[nH]c3ccccc23)NC(=O)[C@H](CCCNC(=N)N)NC(=O)[C@H](C)NC(=O)[C@H](Cc2c[nH]c3ccccc23)NC(=O)[C@H](CCCNC(=N)N)NC(=O)[C@H](CCCNC(=N)N)NC1=O [PnCS1AcAm, Ac-CRRWARWNRC ^*] (Ac-CRRWARWNRC-NH2; disulfide 1-10)
**A:** 0

**Q:** I am curious: what inhibition at 100 µM value has been reported for C[C@@H]1NC(=O)[C@H](Cc2c[nH]c3ccccc23)NC(=O)[C@H](CCCNC(=N)N)NC(=O)[C@H](CCCCN)NC(=O)[C@@H](N)CSSC[C@@H](C(N)=O)NC(=O)[C@H](CCCNC(=N)N)NC(=O)[C@H](CC(N)=O)NC(=O)[C@H](Cc2c[nH]c3ccccc23)NC(=O)[C@H](CCCNC(=N)N)NC1=O [PnCS1[R2K], CKRWARWNRC ^*] (H-CKRWARWNRC-NH2; disulfide 1-10) ?
**A:** 93

* * *

The compounds listed here are annotated with their IC50.
target: rNaV1.8 (Rattus norvegicus, UniProt Q62968)
Sequence (Q62968 whole entry): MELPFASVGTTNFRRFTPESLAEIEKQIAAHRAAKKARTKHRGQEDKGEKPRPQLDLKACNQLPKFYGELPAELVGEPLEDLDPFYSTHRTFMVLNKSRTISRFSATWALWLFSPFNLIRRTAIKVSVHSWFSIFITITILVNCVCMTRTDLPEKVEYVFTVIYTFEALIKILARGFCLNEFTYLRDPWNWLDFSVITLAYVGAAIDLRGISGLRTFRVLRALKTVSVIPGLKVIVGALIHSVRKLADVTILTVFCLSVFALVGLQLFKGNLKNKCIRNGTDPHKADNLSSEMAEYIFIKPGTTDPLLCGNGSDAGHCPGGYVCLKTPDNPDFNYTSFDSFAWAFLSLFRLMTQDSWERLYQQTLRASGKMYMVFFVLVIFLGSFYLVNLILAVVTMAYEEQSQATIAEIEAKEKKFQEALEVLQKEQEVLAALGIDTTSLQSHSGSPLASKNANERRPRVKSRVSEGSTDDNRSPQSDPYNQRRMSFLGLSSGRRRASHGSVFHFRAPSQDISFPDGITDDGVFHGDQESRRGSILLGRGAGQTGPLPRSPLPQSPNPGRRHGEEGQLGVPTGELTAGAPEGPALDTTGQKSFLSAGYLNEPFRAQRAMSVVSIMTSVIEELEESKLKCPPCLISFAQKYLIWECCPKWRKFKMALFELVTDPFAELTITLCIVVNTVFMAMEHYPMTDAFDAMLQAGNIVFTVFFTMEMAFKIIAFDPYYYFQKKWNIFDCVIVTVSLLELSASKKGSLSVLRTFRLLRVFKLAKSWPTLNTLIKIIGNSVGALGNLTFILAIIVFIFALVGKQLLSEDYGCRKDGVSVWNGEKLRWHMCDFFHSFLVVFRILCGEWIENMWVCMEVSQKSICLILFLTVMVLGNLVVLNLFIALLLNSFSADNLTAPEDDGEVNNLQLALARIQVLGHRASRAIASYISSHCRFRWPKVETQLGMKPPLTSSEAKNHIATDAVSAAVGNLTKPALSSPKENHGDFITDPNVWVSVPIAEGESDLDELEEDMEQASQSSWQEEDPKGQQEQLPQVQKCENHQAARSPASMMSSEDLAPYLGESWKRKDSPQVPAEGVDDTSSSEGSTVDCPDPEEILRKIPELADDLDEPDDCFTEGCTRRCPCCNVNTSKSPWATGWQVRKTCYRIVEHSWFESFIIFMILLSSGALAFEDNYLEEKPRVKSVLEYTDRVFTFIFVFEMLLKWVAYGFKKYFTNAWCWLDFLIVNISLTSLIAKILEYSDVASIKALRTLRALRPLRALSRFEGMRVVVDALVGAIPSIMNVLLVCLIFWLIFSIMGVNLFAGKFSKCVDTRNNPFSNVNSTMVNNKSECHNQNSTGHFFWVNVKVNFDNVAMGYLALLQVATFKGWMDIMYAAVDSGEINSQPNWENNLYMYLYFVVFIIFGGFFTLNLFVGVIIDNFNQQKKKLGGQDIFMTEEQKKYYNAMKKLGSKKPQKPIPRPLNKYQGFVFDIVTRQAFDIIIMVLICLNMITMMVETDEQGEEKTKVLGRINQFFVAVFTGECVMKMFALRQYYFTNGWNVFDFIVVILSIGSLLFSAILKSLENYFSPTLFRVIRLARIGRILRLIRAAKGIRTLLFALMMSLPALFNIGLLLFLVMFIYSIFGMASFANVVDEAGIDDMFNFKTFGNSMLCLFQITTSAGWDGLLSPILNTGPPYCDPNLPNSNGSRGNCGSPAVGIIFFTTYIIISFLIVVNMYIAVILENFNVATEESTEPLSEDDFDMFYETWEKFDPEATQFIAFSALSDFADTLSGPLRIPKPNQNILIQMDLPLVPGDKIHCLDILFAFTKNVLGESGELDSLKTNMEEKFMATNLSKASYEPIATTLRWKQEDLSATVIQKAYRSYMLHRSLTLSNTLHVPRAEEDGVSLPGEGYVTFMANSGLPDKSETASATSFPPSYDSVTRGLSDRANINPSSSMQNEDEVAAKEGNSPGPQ
Where a SMILES comes first, the peptide text is derived from it. Bridges are numbered along the chain shown (N, C = ends).

Illustrative cases are given below, each with its answer.
compound | IC50
C[C@@H]1NC(=O)[C@H](Cc2c[nH]c3ccccc23)NC(=O)[C@H](CCCNC(=N)N)NC(=O)[C@H](CCCNC(=N)N)NC(=O)[C@@H](N)CSSC[C@@H](C(N)=O)NC(=O)[C@H](CCCNC(=N)N)NC(=O)[C@H](CC(N)=O)NC(=O)[C@H](CCCCN)NC(=O)[C@H](CCCNC(=N)N)NC1=O [PnCS1[W7K], CRRWARKNRC ^*] (H-CRRWARKNRC-NH2; disulfide 1-10) | > 100 µM
C[C@@H]1NC(=O)[C@H](Cc2c[nH]c3ccccc23)NC(=O)[C@H](CCCNC(=N)N)NC(=O)[C@H](CCCNC(=N)N)NC(=O)[C@@H](N)CSSC[C@@H](C(=O)O)NC(=O)[C@H](CCCNC(=N)N)NC(=O)[C@H](CC(N)=O)NC(=O)[C@H](Cc2c[nH]c3ccccc23)NC(=O)[C@H](CCCNC(=N)N)NC1=O [PnCS1DeAm, CRRWARWNRC] (H-CRRWARWNRC-OH; disulfide 1-10) | > 100 µM

**Q:** IC50 for N=C(N)NCCC[C@@H]1NC(=O)[C@H](CC(N)=O)NC(=O)[C@H](Cc2c[nH]c3ccccc23)NC(=O)[C@H](CCCNC(=N)N)NC(=O)[C@H](CCCCN)NC(=O)[C@H](Cc2c[nH]c3ccccc23)NC(=O)[C@H](CCCNC(=N)N)NC(=O)[C@H](CCCNC(=N)N)NC(=O)[C@@H](N)CSSC[C@@H](C(N)=O)NC1=O [PnCS1[A5K], CRRWKRWNRC ^*] (H-CRRWKRWNRC-NH2; disulfide 1-10) ?
**A:** > 100 µM

* * *

Recorded measurements of inhibition at 100 µM, one per entry
biological target: mNaV1.6 (Mus musculus); test: Two-electrode voltage-clamp on Xenopus laevis oocytes expressing NaV1.6; details: read-out: Maximum % inhibition NaV1.6, peptide at 100 μM
Where a SMILES comes first, the peptide text is derived from it. Bridges are numbered along the chain shown (N, C = ends).
API: value field is a number in %; no unit string.

compound | unit_name | inhibition at 100 µM
C[C@@H]1NC(=O)[C@H](Cc2c[nH]c3ccccc23)NC(=O)[C@H](CCC(=O)O)NC(=O)[C@H](CCCNC(=N)N)NC(=O)[C@@H](N)CSSC[C@@H](C(N)=O)NC(=O)[C@H](CCCNC(=N)N)NC(=O)[C@H](CC(N)=O)NC(=O)[C@H](Cc2c[nH]c3ccccc23)NC(=O)[C@H](CCCNC(=N)N)NC1=O [PnCS1[R3E], CREWARWNRC ^*] (H-CREWARWNRC-NH2; disulfide 1-10) | % | 24

Here is the next item to consider.
**Q:** Name the reported inhibition at 100 µM value associated with the compound C[C@@H]1NC(=O)[C@H](CCC(=O)O)NC(=O)[C@H](CCCNC(=N)N)NC(=O)[C@H](CCCNC(=N)N)NC(=O)[C@@H](N)CSSC[C@@H](C(N)=O)NC(=O)[C@H](CCCNC(=N)N)NC(=O)[C@H](CC(N)=O)NC(=O)[C@H](Cc2c[nH]c3ccccc23)NC(=O)[C@H](CCCNC(=N)N)NC1=O [PnCS1[W4E], CRREARWNRC ^*] (H-CRREARWNRC-NH2; disulfide 1-10)
**A:** 67
